target: NaV1.3 (Homo sapiens); construct: expressed in transfected cells; host or cells: HEK293; experiment: VIPR optical membrane potential assay with electrical stimulation, NaV1.3; type: cell-based; conditions: Table 9, NaV 1.3 receptors
Sequence (Q9NY46 whole entry): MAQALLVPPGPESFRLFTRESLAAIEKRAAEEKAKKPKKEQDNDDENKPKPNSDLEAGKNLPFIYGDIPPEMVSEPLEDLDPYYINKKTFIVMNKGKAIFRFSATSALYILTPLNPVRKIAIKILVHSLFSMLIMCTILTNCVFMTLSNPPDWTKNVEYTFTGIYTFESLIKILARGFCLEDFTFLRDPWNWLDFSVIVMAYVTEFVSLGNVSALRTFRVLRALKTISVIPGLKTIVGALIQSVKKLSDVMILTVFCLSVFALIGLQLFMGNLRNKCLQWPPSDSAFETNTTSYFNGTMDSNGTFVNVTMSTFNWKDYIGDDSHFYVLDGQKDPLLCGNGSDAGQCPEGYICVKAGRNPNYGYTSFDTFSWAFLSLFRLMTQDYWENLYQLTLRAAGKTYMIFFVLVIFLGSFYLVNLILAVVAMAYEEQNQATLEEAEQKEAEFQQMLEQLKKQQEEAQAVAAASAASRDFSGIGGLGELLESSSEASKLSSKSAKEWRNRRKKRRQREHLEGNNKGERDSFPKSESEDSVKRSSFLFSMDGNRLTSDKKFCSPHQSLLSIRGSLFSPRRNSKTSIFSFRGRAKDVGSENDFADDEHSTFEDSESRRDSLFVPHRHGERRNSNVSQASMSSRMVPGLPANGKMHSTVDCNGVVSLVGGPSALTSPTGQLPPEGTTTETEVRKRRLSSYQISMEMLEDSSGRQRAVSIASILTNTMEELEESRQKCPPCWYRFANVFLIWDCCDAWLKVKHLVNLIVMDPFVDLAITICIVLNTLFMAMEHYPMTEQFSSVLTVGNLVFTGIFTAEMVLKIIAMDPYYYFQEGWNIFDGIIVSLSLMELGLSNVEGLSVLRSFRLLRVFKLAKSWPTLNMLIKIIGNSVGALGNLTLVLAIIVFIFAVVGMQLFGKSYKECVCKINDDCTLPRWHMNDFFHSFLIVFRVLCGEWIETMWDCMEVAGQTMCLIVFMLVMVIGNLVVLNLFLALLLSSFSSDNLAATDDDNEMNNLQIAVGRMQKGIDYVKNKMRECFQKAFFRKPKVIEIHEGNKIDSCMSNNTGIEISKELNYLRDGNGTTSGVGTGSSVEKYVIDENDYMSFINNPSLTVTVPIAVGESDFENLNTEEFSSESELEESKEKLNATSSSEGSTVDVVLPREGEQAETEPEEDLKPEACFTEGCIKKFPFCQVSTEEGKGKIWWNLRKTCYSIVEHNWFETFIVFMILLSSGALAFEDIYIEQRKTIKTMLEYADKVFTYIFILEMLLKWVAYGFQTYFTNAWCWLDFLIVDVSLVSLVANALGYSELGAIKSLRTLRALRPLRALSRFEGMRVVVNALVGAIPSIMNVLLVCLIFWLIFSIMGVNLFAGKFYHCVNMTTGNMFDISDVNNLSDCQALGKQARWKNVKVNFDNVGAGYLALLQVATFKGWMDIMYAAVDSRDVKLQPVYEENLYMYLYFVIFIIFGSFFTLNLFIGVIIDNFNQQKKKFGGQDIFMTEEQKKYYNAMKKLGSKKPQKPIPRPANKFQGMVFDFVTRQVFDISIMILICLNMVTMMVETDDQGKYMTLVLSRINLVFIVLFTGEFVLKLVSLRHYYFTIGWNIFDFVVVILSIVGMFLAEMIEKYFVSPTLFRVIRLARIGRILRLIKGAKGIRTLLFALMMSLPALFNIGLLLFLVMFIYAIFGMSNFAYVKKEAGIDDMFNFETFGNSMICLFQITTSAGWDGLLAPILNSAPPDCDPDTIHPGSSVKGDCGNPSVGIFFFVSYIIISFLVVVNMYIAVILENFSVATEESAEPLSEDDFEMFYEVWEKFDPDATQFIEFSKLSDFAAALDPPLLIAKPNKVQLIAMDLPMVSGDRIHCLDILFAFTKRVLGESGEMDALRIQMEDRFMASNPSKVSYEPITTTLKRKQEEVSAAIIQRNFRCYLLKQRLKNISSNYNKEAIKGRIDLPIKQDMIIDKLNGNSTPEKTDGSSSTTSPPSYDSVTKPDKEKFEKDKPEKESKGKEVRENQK
Property name: IC50

Observe how each entry below is paired with its result.
* CC(C)N(Cc1ccccc1)C(=O)c1cnc(NC2CC3CCC2C3)nc1-c1ccccc1F (centres unmarked) | 2 to 10 µM
* CC(=O)N1CCN(c2ncc(C(=O)N3CCC(C)CC3)c(-c3ccc(-c4ccccc4)cc3)n2)CC1 | > 10 µM
* CCCCNc1ncc(C(=O)N(C)CC(C)C)c(-c2cccc(C)c2)n1 | > 10 µM
* CC(C)N(Cc1ccccc1)C(=O)c1cnc(N2CCCCC2)nc1-c1ccccc1F | 2 to 10 µM

Q: Item CCCN(CC1CC1)c1ncc(C(=O)N(Cc2cccc(OC)c2)C(C)C)c(-c2ccccc2F)n1 : provide IC50
A: 2 to 10 µM

Q: Note IC50 for the compound shown: CCN(Cc1ccccc1)C(=O)c1cnc(N2CCCCC2)nc1-c1ccccc1F
A: > 10 µM

Q: Specify measured IC50 for CCC(C)NC(=O)c1cnc(NC2CCCCC2)nc1-c1ccc(C#N)cc1 (centres unmarked) .
A: > 10 µM

Q: Please list IC50 recorded for the compound CC(C)N(C(=O)c1cnc(N2CCN(C)CC2)nc1-c1ccccc1F)c1ccccc1
A: > 10 µM
